Tested on: XIP peptide (Xip251-270) binding
assay remarks: XIP fragment 251-270 binding compounds – biochemical, small-molecule microarray, fluorescence 635/667 nm, 0.1 µg/mL protein, primary screen (AID 1182)
measurement context: fluorescent protein binding, 635 nm, higher = more signal, called active from +8 up or from −8 down

| compound | composite z-score |
| --- | --- |
| CCCNC(=O)[C@@H]1c2ccccc2C(=O)N(CC23CC4CC(CC(C4)C2)C3)[C@H]1c1ccc(CO)cc1 | 1.67 |
| Cc1ccccc1C(O)C1C=CC2C(=O)N(C)C(=O)C2N1Nc1ccc([N+](=O)[O-])cc1[N+](=O)[O-] (stereo unspecified) | 3.99 |
| C=C[C@H](C)[C@H](OC(=O)Nc1ccc(SC)cc1)c1ccc(O)c2ccccc12 | 0.273 |
| C=CC[C@@]1(C(=O)NCCN2CCOCC2)N=C(c2ccc(OCCCO)cc2)O[C@@H]1c1ccccc1 | 0.202 |
| CC(C)(C)OC(=O)CC[C@]1(C(=O)O)COC(c2ccc(OCCCO)cc2)=N1 | 3.69 |
| COCC(=C=CC[C@@H](O)c1ccccc1OCCO)C[C@@H](O)c1ccccn1 | 0.416 |
| CCOC(=O)C[C@H]1[C@H](OC(=O)Cc2ccc3c(c2)OCO3)[C@@H](NC(=O)c2ccccc2)c2cc(OCCCO)ccc2N1C(=O)c1ccc2ccccc2n1 | -0.263 |
| CN1C(=O)C2C=CC(C(O)C3CCCCC3)N(N(c3ccccc3)c3ccccc3)C2C1=O (stereo unspecified) | -0.119 |
| CC1CC/C=C\[C@H]2OC34C=CCN(Cc5ccccc5)C(=O)[C@H]3N(CCO)C(=O)[C@@H]4C2C(=O)O1 (stereo partly specified) | 0.449 |
| CCCNC(=O)[C@@]1(Sc2ccc(C)cc2)CC(=O)N(Cc2ccccc2)[C@@H]1c1ccc(CO)cc1I | 0.334 |
| CC(C)CCC[C@@H](C)[C@H]1CC[C@@]2(C)C3=C(CC[C@]12C)[C@@]1(C)CC[C@H](OC(=O)C(C)(C)C)C(C)(C)C1CC3 (stereo partly specified) | 0.434 |
| O=C(CS)NCCCCCNC(=O)[C@@H]1C[C@@H]2C(=O)N3CCC[C@H]3C(=O)N2[C@@H]1c1ccc(O)cc1 | 0.262 |
| [N-]=[N+]=NCc1ccccc1[C@H]1OC(c2ccc(OCCCO)cc2)=N[C@@]1(Cc1ccccc1N=[N+]=[N-])C(=O)N1CCCCC1 | 0.538 |
| C=C(/C(=C/C[C@@H](OC(=O)c1ccncc1)c1ccccc1OCCO)c1cnc2ccccc2c1)C(C)C | 0.509 |
| O=C1N(Cc2ccccc2)c2ccccc2[C@H]2OC(c3ccc(OCCCO)cc3)=N[C@@]12CCS(=O)(=O)c1ccccc1 | 0.0535 |
| CCCCC=C[C@@H](NC(=O)CCc1ccccc1)c1ccccc1 | 0.286 |
